Assign IC50 to each entry below.
target: INDY (Homo sapiens); test: 14C-citrate uptake in HEK293 cells overexpressing recombinant human INDY (NaCT); type: cell-based; design: expressed in transfected cells; host or cells: HEK293
Sequence (Q86YT5 whole entry): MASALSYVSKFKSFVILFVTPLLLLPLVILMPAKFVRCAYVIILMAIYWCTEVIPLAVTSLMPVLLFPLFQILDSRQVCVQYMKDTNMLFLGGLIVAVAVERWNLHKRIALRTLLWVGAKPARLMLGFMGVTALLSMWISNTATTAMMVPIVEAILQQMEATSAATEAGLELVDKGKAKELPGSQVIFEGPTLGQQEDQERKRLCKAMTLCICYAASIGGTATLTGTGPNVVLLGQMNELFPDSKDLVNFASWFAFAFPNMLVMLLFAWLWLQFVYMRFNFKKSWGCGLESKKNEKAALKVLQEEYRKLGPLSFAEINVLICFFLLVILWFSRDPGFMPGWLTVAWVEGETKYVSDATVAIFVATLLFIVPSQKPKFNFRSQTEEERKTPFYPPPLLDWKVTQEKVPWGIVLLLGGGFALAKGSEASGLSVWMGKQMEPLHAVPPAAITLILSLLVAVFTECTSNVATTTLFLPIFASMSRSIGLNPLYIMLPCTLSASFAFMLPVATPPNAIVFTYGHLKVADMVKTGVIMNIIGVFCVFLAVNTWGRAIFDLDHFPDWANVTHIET
Give bare numbers, in nM.

Would you please look over these solved cases?
{"columns": ["Compound", "Number"],
 "data": [
  ["O=C(NCc1ccccn1)C1CCN(S(=O)(=O)c2cc(Br)cc(C(F)(F)F)c2)CC1 [Example 126]", 500],
  ["O=C(NCc1cccc(CO)c1)C1CCN(S(=O)(=O)c2cc(Cl)cc(Cl)c2)CC1 [Example 117]", 800],
  ["O=C(NCc1ccccn1)C1CCN(S(=O)(=O)c2ccc(C3CCCCC3)cc2)CC1 [Example 131]", 6100],
  ["O=C(NCc1cccc(F)c1)C1CCN(S(=O)(=O)c2cc(Cl)cc(Cl)c2)CC1 [Example 115]", 200],
  ["CC(C)Oc1ccc(S(=O)(=O)N2CCC(C(=O)NCc3ccccc3F)CC2)cc1 [Example 24]", 9300]
]}

## Task Which IC50 value is on record for O=C(NCc1ccccn1)C1CCN(S(=O)(=O)c2cc(Cl)cc(Br)c2)CC1 [Example 96] ?
## Result 400
